Entries and their OD450-650 nM, 300 ng/ml PDL1 binding values follow.
Measured target: T1, PDL1-hFc (UniProt Q9NZQ7 19-238)
T1 construct: Coated at 1 µg/ml in the ELISAs of the chimeric and humanized antibodies; construct not described
T1 sequence (Q9NZQ7 19-238): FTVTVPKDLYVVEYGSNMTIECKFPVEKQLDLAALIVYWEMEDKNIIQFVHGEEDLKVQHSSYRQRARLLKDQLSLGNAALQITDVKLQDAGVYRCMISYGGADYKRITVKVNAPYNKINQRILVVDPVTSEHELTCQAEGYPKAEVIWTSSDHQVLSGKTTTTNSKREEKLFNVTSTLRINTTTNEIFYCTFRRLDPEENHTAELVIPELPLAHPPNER
Method notes: ELISA, PDL1-hFc coated 1 µg/ml, antibody supernatant at 300 ng/ml, anti-human Kappa HRP
The answer is to be given in OD; state only the numeric part.

Here is how some binders turned out for OD450-650 nM, 300 ng/ml PDL1 binding.
3C3 heavy chain M / light chain Hu2 (antibody, V domains shown, Human IgG, kappa, from pTCAED vectors; tested as culture supernatant) VH: EVQLQESGPGLTKPSQTLSLTCSVTGYSITSDYWDWIRKFPGNKLEYMGYISYTGSTYYNPSLRSRISITRDTSKNQYYLQLSSVTSEDSATYYCARRGGWLSPFVYWGQGTLVTVSA VL: DIVMTQTPLSLSVTPGQPASISCKSRQSLLFSSNQKNSLAWYLQKPGQSPQLLIYWASTRESGVPDRFSGSGSGTDFTLKISRVEAEDVGVYYCQQYYTYPFTFGQGTKLEIK	1.55
mouse-human chimera 3C3 MM (antibody, V domains shown, Variable regions in human chimera antibody expression vectors pTCAED heavy and light; human IgG, kappa (detected with anti-human Kappa); also called 3C3 heavy chain M / light chain M; chimera PD-L1) VH: EVQLQESGPGLTKPSQTLSLTCSVTGYSITSDYWDWIRKFPGNKLEYMGYISYTGSTYYNPSLRSRISITRDTSKNQYYLQLSSVTSEDSATYYCARRGGWLSPFVYWGQGTLVTVSA VL: DTVMSQSPSSLGVSVGERVTLTCKSRQSLLFSSNQKNSLAWYQQKPGQSPKLLIYWASTRESGVPDRFTGSGSGTDFTLTISSVKSEDLAVYYCQQYYTYPFTFGAGTSLELK	1.52
3C3 humanized antibody HuB2Hu0 (antibody, V domains shown, Human IgG, kappa, from pTCAED vectors; also called 3C3-HuB2Hu0; 3C3 HuB2Hu0) VH: EVQLQESGPGLVKPSQTLSLTCTVSGYSITSDYWDWIRKPPGKGLEYMGYISYTGSTYYNPSLRSRITISRDTSKNQYSLKLSSVTAADTAVYYCARRGGWLSPFVYWGQGTLVTVSS VL: DIVMTQSPDSLAVSLGERATINCKSRQSLLFSSNQKNSLAWYQQKPGQPPKLLIYWASTRESGVPDRFSGSGSGTDFTLTISSLQAEDVAVYYCQQYYTYPFTFGQGTKLEIK	1.13

### Prompt Requested field: OD450-650 nM, 300 ng/ml PDL1 binding. Item: 3C3 humanized antibody HuB2Hu2 (antibody, V domains shown, Human IgG, kappa, from pTCAED vectors; also called 3C3-HuB2Hu2; 3C3 HuB2Hu2) VH: EVQLQESGPGLVKPSQTLSLTCTVSGYSITSDYWDWIRKPPGKGLEYMGYISYTGSTYYNPSLRSRITISRDTSKNQYSLKLSSVTAADTAVYYCARRGGWLSPFVYWGQGTLVTVSS VL: DIVMTQTPLSLSVTPGQPASISCKSRQSLLFSSNQKNSLAWYLQKPGQSPQLLIYWASTRESGVPDRFSGSGSGTDFTLKISRVEAEDVGVYYCQQYYTYPFTFGQGTKLEIK
### Response 1.05

### Prompt Requested field: OD450-650 nM, 300 ng/ml PDL1 binding. Item: 3C3 humanized antibody HuB2Hu (antibody, V domains shown, Human IgG, kappa, from pTCAED vectors; also called 3C3-HuB2Hu; 3C3 HuB2Hu) VH: EVQLQESGPGLVKPSQTLSLTCTVSGYSITSDYWDWIRKPPGKGLEYMGYISYTGSTYYNPSLRSRITISRDTSKNQYSLKLSSVTAADTAVYYCARRGGWLSPFVYWGQGTLVTVSS VL: DIQMTQSPSSLSASVGDRVTITCKSRQSLLFSSNQKNSLAWYQQKPGKAPKLLIYWASTRESGVPSRFSGSGSGTDFTLTISSLQPEDFATYYCQQYYTYPFTFGQGTKLEIK
### Response 1.35
